Target: αvβ6 (Homo sapiens, UniProt P06756+P18564)
Construct: expressed in transfected cells; host or cells: K562
Sequence (P06756 31-889 limits assumed): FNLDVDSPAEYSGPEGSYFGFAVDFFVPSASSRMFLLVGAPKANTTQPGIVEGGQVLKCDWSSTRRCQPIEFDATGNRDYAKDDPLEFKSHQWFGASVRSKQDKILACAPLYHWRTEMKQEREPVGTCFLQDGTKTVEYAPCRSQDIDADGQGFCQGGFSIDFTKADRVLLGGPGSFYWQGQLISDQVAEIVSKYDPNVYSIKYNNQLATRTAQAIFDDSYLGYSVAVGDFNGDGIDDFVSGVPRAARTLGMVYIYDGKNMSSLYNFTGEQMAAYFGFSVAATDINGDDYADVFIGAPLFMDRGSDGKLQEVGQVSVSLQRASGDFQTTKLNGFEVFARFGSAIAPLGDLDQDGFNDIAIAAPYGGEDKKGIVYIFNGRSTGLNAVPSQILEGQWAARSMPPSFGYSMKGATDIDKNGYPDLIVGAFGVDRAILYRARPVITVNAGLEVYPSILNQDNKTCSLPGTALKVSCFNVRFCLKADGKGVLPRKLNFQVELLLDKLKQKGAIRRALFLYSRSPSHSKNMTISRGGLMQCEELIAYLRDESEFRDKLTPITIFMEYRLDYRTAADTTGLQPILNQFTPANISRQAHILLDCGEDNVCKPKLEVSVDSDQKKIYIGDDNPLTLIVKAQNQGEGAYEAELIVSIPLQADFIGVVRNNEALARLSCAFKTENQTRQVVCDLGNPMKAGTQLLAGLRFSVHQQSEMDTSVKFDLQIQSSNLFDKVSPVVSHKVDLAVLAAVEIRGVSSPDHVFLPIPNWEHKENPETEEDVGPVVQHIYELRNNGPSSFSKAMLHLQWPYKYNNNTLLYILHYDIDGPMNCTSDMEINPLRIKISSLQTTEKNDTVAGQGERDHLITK
Sequence (P06756 891-1048 partner limits assumed): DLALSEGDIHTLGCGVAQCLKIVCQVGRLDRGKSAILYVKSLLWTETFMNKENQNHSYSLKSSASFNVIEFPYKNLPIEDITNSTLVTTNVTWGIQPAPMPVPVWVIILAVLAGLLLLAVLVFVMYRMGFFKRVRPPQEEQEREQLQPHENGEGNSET
Sequence (P18564 22-788): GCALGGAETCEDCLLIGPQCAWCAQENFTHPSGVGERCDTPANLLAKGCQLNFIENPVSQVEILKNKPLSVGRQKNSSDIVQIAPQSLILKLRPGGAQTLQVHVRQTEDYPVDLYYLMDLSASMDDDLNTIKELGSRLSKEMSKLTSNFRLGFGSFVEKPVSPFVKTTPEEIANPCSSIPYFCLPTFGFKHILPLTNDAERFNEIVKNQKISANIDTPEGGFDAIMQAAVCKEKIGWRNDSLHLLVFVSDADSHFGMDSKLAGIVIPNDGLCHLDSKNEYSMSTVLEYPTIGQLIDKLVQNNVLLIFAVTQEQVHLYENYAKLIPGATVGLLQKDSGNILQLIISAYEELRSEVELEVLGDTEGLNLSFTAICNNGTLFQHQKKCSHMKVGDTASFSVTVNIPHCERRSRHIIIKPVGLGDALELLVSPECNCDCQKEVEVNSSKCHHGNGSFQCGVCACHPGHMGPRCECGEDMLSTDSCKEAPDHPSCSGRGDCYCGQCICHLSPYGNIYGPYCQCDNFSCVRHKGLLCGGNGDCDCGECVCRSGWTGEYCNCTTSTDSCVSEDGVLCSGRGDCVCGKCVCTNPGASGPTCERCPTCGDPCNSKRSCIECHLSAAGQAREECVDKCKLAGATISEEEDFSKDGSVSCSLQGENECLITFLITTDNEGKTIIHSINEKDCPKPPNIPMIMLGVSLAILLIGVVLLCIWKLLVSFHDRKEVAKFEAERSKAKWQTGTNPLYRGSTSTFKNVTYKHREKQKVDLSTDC
Test: Cell Adhesion Assay K562-αvβ6 (LAP-b1)
Format: cell-based
Conditions: K562-αvβ6 cells, ligand LAP-b1, 2 mM MgCl2; read-out: mean affinity (pIC50) αvβ6 (converted)
Below is a list of entries, each paired with its recorded IC50 value.
PROPERTY_LABEL: IC50

Cc1cc(C(C)(C)O)nn1-c1cccc(C(CC(=O)O)CN2CC[C@@H](CCc3ccc4c(n3)NCCC4)C2)c1 (single isomer, unassigned); 12.6 nM
O=C(O)CC(CN1CC[C@@H](CCc2ccc3c(n2)NCCC3)C1)c1cccc(-n2ccc(C(F)(F)F)n2)c1 (stereo partly shown); 6.31 nM
Cc1cc(CO)nn1-c1cccc(C(CC(=O)O)CN2CC[C@@H](CCc3ccc4c(n3)NCCC4)C2)c1 (single isomer, unassigned); 2.51 nM
Cc1cc(CF)nn1-c1cccc(C(CC(=O)O)CN2CC[C@@H](CCc3ccc4c(n3)NCCC4)C2)c1 (stereo partly shown); 3.16 nM
